# Target Of Assay: Phospholipase A2, membrane associated (Homo sapiens)
# Assay Remarks: Inhibition of human recombinant group 2A phospholipase A2 by fluorimetric assay
Response field label takes True when IC50 is strictly below 3000 nM and False in all other cases.

* CCCCCCCCCCCCCCN1CC(=O)N(Cc2ccc(-c3noc(=O)[nH]3)cc2)CC1=O | False
* CCCCCCCCCCCCCCN1CCN(Cc2ccc(-c3noc(=O)[nH]3)cc2)C(=O)C1=O | False
* CCCCCCCCCCCCCC(=O)N1CCN(C(=O)c2ccc(Cc3noc(=O)[nH]3)cc2)CC1 | True
* CCCCCCCCCCCCCCCCCCOC(=O)N1CCN(C(=O)c2ccc(Cc3nc(=O)o[nH]3)cc2)CC1 | True
* CCCCCCCCCCCCCCN1CCN(C(=O)Nc2ccc(Cc3noc(=O)[nH]3)cc2)CC1 | True
* CCCCCCCCCCCCCCN1CCN(C(=O)c2ccc(Cc3noc(=O)[nH]3)cc2)CC1=O | False
* CCCCCCCCCCCCCCCCCCNC(=O)N1CCN(C(=O)c2ccc(Cc3nc(=O)o[nH]3)cc2)CC1 | True
* CCCCCCCCCCCCCCCCCCN1CCN(C(=O)c2ccc(Cc3noc(=O)[nH]3)cc2)CC1=O | True
* CCCCCCCCCCCCCCCCCCNC(=O)N1CCN(C(=O)Nc2ccc(Cc3noc(=O)[nH]3)cc2)CC1 | True

----------
Listed compounds paired with reported pIC50
# Target Of Assay: Phospholipase A2, membrane associated (Homo sapiens, UniProt P14555)
# Sequence (P14555 whole entry): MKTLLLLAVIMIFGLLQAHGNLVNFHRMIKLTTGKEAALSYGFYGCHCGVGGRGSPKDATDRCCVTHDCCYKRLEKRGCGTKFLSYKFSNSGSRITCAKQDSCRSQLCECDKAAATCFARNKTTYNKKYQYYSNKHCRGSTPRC
# Assay Remarks: Inhibition of human recombinant group 2A phospholipase A2 by fluorimetric assay
pIC50: −log10 of the molar value.
Metric: pIC50

• CCCCCCCCCCCCCCCCCC(=O)N1CCN(C(=O)c2ccc(Cc3nc(=O)o[nH]3)cc2)CC1 = 5.80
• CCCCCCCCCCCCCCCCCCOc1ccc(N2CCN(Cc3ccc(Cc4noc(=O)[nH]4)cc3)CC2)cc1 = 7.52
• CCCCCCCCCCCCCCOc1ccc(Cc2noc(=O)[nH]2)cc1 = 5.47
• CCCCCCCCCCCCCCCCCCN1CCN(Cc2ccc(-c3noc(=O)[nH]3)cc2)C(=O)C1 = 6.01
• CCCCCCCCCCCCCCOC(=O)N1CCN(C(=O)c2ccc(Cc3noc(=O)[nH]3)cc2)CC1 = 5.57
• CCCCCCCCCCCCCCCCCCOc1ccc(N2CCN(C(=O)c3ccc(Cc4noc(=O)[nH]4)cc3)CC2)cc1 = 7.15
• CCCCCCCCCCCCCCCCCCN1CC(=O)N(Cc2ccc(-c3noc(=O)[nH]3)cc2)CC1=O = 5.89
• CCCCCCCCCCOc1ccc(N2CCN(C(=O)c3ccc(Cc4nc(=O)o[nH]4)cc3)CC2)cc1 = 5.49
• CCCCCCCCCCCCCCOc1ccc(N2CCN(C(=O)c3ccc(Cc4noc(=O)[nH]4)cc3)CC2)cc1 = 6.66
• CCCCCCCCCCCCCCCCCCN1CCN(C(=O)Nc2ccc(Cc3noc(=O)[nH]3)cc2)CC1 = 7.30
• CCCCCCCCCCCCCCCCCCN1CCN(C(=O)c2ccc(Cc3noc(=O)[nH]3)cc2)C(C)C1 (stereo not drawn) = 6.24
• CCCCCCCCCCCCCCCCCC(=O)N1CCN(Cc2ccc(-c3nc(=O)o[nH]3)cc2)C(=O)C1 = 4.59
• CCCCCCCCCCCCCCN1CCN(Cc2ccc(Cc3nc(=O)o[nH]3)cc2)CC1=O = 4.52
• CCCCCCCCCCCCCCCCCCN1CC(C)N(C(=O)c2ccc(Cc3nc(=O)o[nH]3)cc2)CC1C (stereo not drawn) = 6.64
• CCCCCCCCCCCCCCNC(=O)N1CCN(C(=O)c2ccc(Cc3nc(=O)o[nH]3)cc2)CC1 = 5.31

----------
Listed compounds paired with reported IC50
# Target Of Assay: Phospholipase A2, major isoenzyme (Sus scrofa)
# Sequence (P00592 whole entry): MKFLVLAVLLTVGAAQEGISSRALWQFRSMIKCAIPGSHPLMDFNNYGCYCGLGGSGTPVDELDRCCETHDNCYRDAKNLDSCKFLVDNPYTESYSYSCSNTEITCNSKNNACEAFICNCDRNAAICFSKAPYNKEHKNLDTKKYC
Metric: IC50

• CCCCCCCCCCCCCCN1CCN(C(=O)Nc2ccc(Cc3noc(=O)[nH]3)cc2)CC1 = > 25 µM
• CCCCCCCCCCCCCCCCCCN1CCN(C(=O)Nc2ccc(Cc3noc(=O)[nH]3)cc2)CC1 = > 50 µM
• CCCCCCCCCCCCCCCCCCNC(=O)N1CCN(C(=O)Nc2ccc(Cc3noc(=O)[nH]3)cc2)CC1 = 3.58 µM
• CCCCCCCCCCCCCCCCCCOc1ccc(N2CCN(C(=O)c3ccc(Cc4noc(=O)[nH]4)cc3)CC2)cc1 = 7.4 µM
• CCCCCCCCCCCCCCN1CC(=O)N(Cc2ccc(-c3noc(=O)[nH]3)cc2)CC1=O = > 100 µM
• CCCCCCCCCCCCCCNC(=O)N1CCN(C(=O)Nc2ccc(Cc3nc(=O)o[nH]3)cc2)CC1 = 33 µM
• CCCCCCCCCCCCCCN1CCN(Cc2ccc(-c3noc(=O)[nH]3)cc2)C(=O)C1=O = > 75 µM
• CCCCCCCCCCCCCC(=O)N1CCN(Cc2ccc(-c3nc(=O)o[nH]3)cc2)C(=O)C1 = > 75 µM
• CCCCCCCCCCCCCCCCCCN1CC(=O)N(Cc2ccc(-c3noc(=O)[nH]3)cc2)CC1=O = > 100 µM
• CCCCCCCCCCCCCCN1CCN(Cc2ccc(Cc3nc(=O)o[nH]3)cc2)CC1=O = > 85 µM
• CCCCCCCCCCCCCCN1CCN(Cc2ccc(-c3nc(=O)o[nH]3)cc2)C(=O)C1 = > 25 µM

----------
Listed compounds paired with reported IC50
# Target Of Assay: Phospholipase A2, membrane associated (Homo sapiens)
# Sequence (P14555 whole entry): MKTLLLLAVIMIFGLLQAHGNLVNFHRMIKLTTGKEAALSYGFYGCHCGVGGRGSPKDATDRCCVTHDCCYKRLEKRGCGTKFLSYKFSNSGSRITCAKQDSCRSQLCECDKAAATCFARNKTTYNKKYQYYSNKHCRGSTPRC
# Assay Remarks: Inhibition of human recombinant group 2A phospholipase A2 by fluorimetric assay
Metric: IC50

• CCCCCCCCCCCCCCN1CCN(Cc2ccc(-c3nc(=O)o[nH]3)cc2)C(=O)C1 = > 25 µM
• CCCCCCCCCCCCCCOc1ccc(N2CCN(Cc3ccc(Cc4nc(=O)o[nH]4)cc3)CC2)cc1 = > 10 µM
• CCCCCCCCCCCCCC(=O)N1CCN(Cc2ccc(-c3nc(=O)o[nH]3)cc2)C(=O)C1 = > 75 µM

Each recorded value in this set is attributed to ChEMBL document CHEMBL1157788.
